Hey, just so you know, these numbers are from paper PMC8268581.

TARGET_OR_SYSTEM: PfDHODH (Plasmodium falciparum)
Construct: encoding amino acid residues 158 to 569 fused to a His6-SUMO tag in its N-terminus; His6-SUMO (N, cleaved yes); made in house; host or cells: E. coli BL21 Star (DE3), pETSUMO/PfDHODH
ASSAY_METHOD_TEXT: PfDHODH inhibition assay (DCIP end-point, 384-well)
Assay type: biochemical
CONDITION_LABEL: recombinant tag-free PfDHODH, 20 min, serial dilutions 0.0007-22.7 µM; read-out: IC50 DHODH Pf
Could you please report measured IC50 for the items listed next?
Please reply with the bare figure in nM and do not write the unit itself.

**Query** Please report the recorded IC50 for N=C1Sc2cc(-c3ccc(OC(F)(F)F)cc3)ccc2C2=NCCCN12 .
**Result** 1430

**Query** Tell me the measured IC50 of Oc1cccc(-c2ccc3c(c2)SN2CCCN=C32)c1 , please.
**Result** 1440

**Query** Need IC50, item CC(C)(C)N=C1Sc2cc(-c3cc4ccccc4s3)ccc2C2=NCCCN12
**Result** 3840

**Query** Can you share its IC50? I mean this compound: N=C1Sc2cc(-c3cc4ccccc4o3)ccc2C2=NCCCN12
**Result** 1300

**Query** Which IC50 is reported for this compound? N#Cc1ccc(-c2ccc3c(c2)SC(=N)N2CCCN=C32)cc1
**Result** 3890

====

TARGET_OR_SYSTEM: PfDHODH (Plasmodium falciparum)
Construct: encoding amino acid residues 158 to 569 fused to a His6-SUMO tag in its N-terminus; His6-SUMO (N, cleaved yes); made in house; host or cells: E. coli BL21 Star (DE3), pETSUMO/PfDHODH
ASSAY_METHOD_TEXT: PfDHODH inhibition assay (DCIP end-point, 384-well)
Format: biochemical
Method: The screening of 40,400 compounds was conducted in 384-well plates by adapting the end-point assay reported before. […] The absorbance at 600 nm was recorded using a SpectraMax®® Paradigm®® Multi-Mode Microplate Reader (Molecular Devices) before (t0) and after 20 min (t20) incubation at room temperature. The readings at t0 were subtracted from t20, and PfDHODH inhibition was calculated as the inhibition relative to the negative and positive controls in a single-point assay. […]
PROPERTY_MEASURED: pIC50
pIC50 field: float, defined as -log10 of concentration (mol/L).

**Query** Can you look up the measured pIC50 of N=C1Sc2cc(/C=C/c3ccccc3)ccc2C2=NCCCN12 for me?
**Result** 5.97

====

For each entry below, report its pIC50 value.
TARGET_OR_SYSTEM: HsDHODH (Homo sapiens)
Sequence (Q02127 whole entry): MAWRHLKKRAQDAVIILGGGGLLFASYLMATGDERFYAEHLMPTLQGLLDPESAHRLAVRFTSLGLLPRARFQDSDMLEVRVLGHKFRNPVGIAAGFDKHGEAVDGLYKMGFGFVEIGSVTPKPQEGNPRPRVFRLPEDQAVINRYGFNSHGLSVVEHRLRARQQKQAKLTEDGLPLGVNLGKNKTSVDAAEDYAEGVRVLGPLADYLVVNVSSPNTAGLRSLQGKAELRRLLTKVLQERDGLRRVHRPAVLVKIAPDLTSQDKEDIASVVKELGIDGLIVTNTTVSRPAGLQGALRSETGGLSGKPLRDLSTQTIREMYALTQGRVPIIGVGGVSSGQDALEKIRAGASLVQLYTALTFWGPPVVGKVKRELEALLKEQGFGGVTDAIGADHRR
ASSAY_METHOD_TEXT: HsDHODH counter-assay
CONDITION_LABEL: purified recombinant HsDHODH, tested at 4.5 µM; read-out: IC50 DHODH Hs
pIC50: −log10 of the molar value.

**Query** State its pIC50 on HsDHODH (Homo sapiens): CC(C)Oc1cccc(-c2ccc3c(c2)SC(=N)N2CCCN=C32)c1
**Result** < 5.35

**Query** Query for HsDHODH (Homo sapiens): what pIC50 does the record show for c1ccc2c(-c3ccc4c(c3)SN3CCCN=C43)cccc2c1 ?
**Result** < 5.35

**Query** Given the entry N=C1Sc2cc3ccccc3cc2C2=NCCCN12 , what pIC50 was observed with HsDHODH (Homo sapiens)?
**Result** < 5.35

====

ASSAY_METHOD_TEXT: Cytotoxicity assay, PANC-1 (Cell Counting Kit-8)
Assay type: cell-based
CONDITION_LABEL: PANC-1 human pancreatic carcinoma cells
PROPERTY_MEASURED: EC50 at 48 h

**Query** Fill in: EC50 at 48 h of N=C1Sc2ccc(-c3ccccc3)cc2C2=NCCCN12 is ___
**Result** > 10 µM

**Query** Record request: EC50 at 48 h value, item N=C1Sc2cc(-c3ccc4cnccc4c3)ccc2C2=NCCCN12
**Result** > 10 µM

**Query** EC50 at 48 h for FC(F)(F)c1ccc2c(c1)SN1CCCN=C21 ?
**Result** > 10 µM

====

Provide the reported activity at 10 µM of each item.
System: P. falciparum 3D7 strain expressing the cytosolic yeast DHODH (3D7-yDHODH)
ASSAY_METHOD_TEXT: Confirmation assay against transgenic parasite 3D7-yDHODH
Assay type: cell-based, Plasmodium falciparum
CONDITION_LABEL: 72 h; relative parasite growth at 10 µM compound; read-out: Growth at 10 µM (%) Pf3D7-yDHODH
State just the number; it will be interpreted in %.

**Query** Can you share its activity at 10 µM? I mean this molecule: N=C1Sc2cc(-c3ccccc3-c3ccccc3)ccc2C2=NCCCN12 [Compound 27]
**Result** 0.25

**Query** I am curious: what activity at 10 µM value has been reported for COC(=O)c1ccc(-c2ccc3c(c2)SN2CCCN=C32)cc1 [Compound 37] ?
**Result** -0.18

**Query** Using the record for CC(C)Oc1cccc(-c2ccc3c(c2)SC(=N)N2CCCN=C32)c1 [Compound 22] , report its activity at 10 µM.
**Result** -0.06

**Query** Name the recorded activity at 10 µM for COc1ccccc1-c1ccc2c(c1)SN1CCCN=C21 [Compound 42] .
**Result** 0.04

**Query** I am curious: what activity at 10 µM value has been reported for c1ccc(-c2ccc3c(c2)C2=NCCCN2S3)cc1 [Compound 36] ?
**Result** 32.5

====

TARGET_OR_SYSTEM: PfDHODH (Plasmodium falciparum, UniProt Q08210)
Construct: encoding amino acid residues 158 to 569 fused to a His6-SUMO tag in its N-terminus; His6-SUMO (N, cleaved yes); made in house; host or cells: E. coli BL21 Star (DE3), pETSUMO/PfDHODH
Sequence (Q08210 158-569): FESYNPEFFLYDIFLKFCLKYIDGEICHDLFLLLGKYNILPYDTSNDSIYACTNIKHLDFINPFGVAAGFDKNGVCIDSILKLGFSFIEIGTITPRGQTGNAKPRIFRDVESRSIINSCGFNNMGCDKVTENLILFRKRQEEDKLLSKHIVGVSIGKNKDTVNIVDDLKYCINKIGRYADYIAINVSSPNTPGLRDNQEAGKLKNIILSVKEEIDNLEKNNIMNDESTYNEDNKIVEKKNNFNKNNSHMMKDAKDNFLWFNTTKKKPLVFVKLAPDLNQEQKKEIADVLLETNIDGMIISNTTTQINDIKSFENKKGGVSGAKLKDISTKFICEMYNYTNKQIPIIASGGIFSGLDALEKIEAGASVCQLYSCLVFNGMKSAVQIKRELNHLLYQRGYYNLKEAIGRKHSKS
ASSAY_METHOD_TEXT: PfDHODH inhibition assay (DCIP end-point, 384-well)
Assay type: biochemical
CONDITION_LABEL: recombinant tag-free PfDHODH, 20 min, serial dilutions 0.0007-22.7 µM; read-out: IC50 DHODH Pf
# label = YES if IC50 < 1000 nM else NO

**Query** Please determine if N=C1Sc2cc(-c3ccc4cnccc4c3)ccc2C2=NCCCN12 is below 1000 nM in terms of IC50.
**Result** YES

**Query** Lab note: confirm whether the reported IC50 for this molecule is below 1000 nM, equality not counting. molecule: CSc1ccc(-c2ccc3c(c2)SC(=N)N2CCCN=C32)cc1
**Result** YES

**Query** I'd appreciate it if you could check whether COC(=O)c1ccc(-c2ccc3c(c2)SN2CCCN=C32)cc1 has IC50 smaller than 1000 nM.
**Result** NO

**Query** Is it true that IC50 reported for c1ccc(-c2ccc3c(c2)C2=NCCCN2S3)cc1 is less than 1000 nM?
**Result** NO

**Query** Please determine if CC(=O)Nc1cccc(-c2ccc3c(c2)SC(=N)N2CCCN=C32)c1 is below 1000 nM in terms of IC50.
**Result** NO

**Query** Threshold test, IC50 < 1000 nM: O=[N+]([O-])c1ccc(-c2ccc3c(c2)SN2CCCN=C32)cc1
**Result** NO

====

Tested on: P. falciparum 3D7 strain expressing the cytosolic yeast DHODH (3D7-yDHODH)
ASSAY_METHOD_TEXT: Confirmation assay against transgenic parasite 3D7-yDHODH
Assay type: cell-based, Plasmodium falciparum
CONDITION_LABEL: 72 h; relative parasite growth at 10 µM compound; read-out: Growth at 10 µM (%) Pf3D7-yDHODH
PROPERTY_MEASURED: activity at 10 µM (%)
// units = %; emit number, no label

**Query** Entry N=C1Sc2cc(-c3ccc(OC(F)(F)F)cc3)ccc2C2=NCCCN12 : reported activity at 10 µM = ?
**Result** 2.54

**Query** # input compound: N=C1Sc2cc(-c3ccc4c(c3)OCCO4)ccc2C2=NCCCN12 ; wanted: its activity at 10 µM
**Result** 24

**Query** Fill in the blank: the reported activity at 10 µM of c1ccc2c(-c3ccc4c(c3)SN3CCCN=C43)cccc2c1 is ____.
**Result** 0

**Query** // query activity at 10 µM value for entry CC(C)(C)N=C1Sc2cc(-c3cc4ccccc4s3)ccc2C2=NCCCN12
**Result** -0.48

**Query** Reported activity at 10 µM, compound N=C1Sc2cc(-c3ccc4ccccc4c3)ccc2C2=NCCCN12 : ____
**Result** -0.62

====

Please go through the items and note down their IC50.
TARGET_OR_SYSTEM: PfDHODH (Plasmodium falciparum, UniProt Q08210)
Construct: encoding amino acid residues 158 to 569 fused to a His6-SUMO tag in its N-terminus; His6-SUMO (N, cleaved yes); made in house; host or cells: E. coli BL21 Star (DE3), pETSUMO/PfDHODH
ASSAY_METHOD_TEXT: PfDHODH inhibition assay (DCIP end-point, 384-well)
Type: biochemical
CONDITION_LABEL: recombinant tag-free PfDHODH, 20 min, serial dilutions 0.0007-22.7 µM; read-out: IC50 DHODH Pf
# output: numeric value plus its unit

**Query** I am curious: what IC50 value has been reported for COC(=O)c1cccc(-c2ccc3c(c2)SN2CCCN=C32)c1 [Compound 40] ?
**Result** 1430 nM

**Query** IC50 for N=C1Sc2cc(-c3ccc4c(c3)OCO4)ccc2C2=NCCCN12 [Compound 3] ?
**Result** 1180 nM

**Query** Quick one: IC50 for N=C1Sc2cc(-c3ccc(C(=O)c4ccccc4)cc3)ccc2C2=NCCCN12 [Compound 19] ?
**Result** 1070 nM

**Query** Consider the compound shown here: N=C1Sc2cc(-c3ccccc3)ccc2C2=NCCCN12 [Compound 12] What is its recorded IC50?
**Result** 680 nM

**Query** Requested field: IC50. Item: CS(=O)(=O)Nc1cccc(-c2ccc3c(c2)SC(=N)N2CCCN=C32)c1 [Compound 24]
**Result** 1940 nM
